# assay_remarks: recombinant UMI read abundance after kanamycin selection (control-corrected) (log10(CPM+1)); higher = more efficient recombination; extreme values may be limits of the assay; sequences stand for … in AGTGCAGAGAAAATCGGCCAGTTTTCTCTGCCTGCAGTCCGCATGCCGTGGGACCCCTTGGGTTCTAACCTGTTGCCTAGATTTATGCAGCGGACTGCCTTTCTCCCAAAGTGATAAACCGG…AGGTTGGTTTCACT; site = the 11-nt donor;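 further: IS621 bridge recombinase in Escherichia coli cells against a fixed T5 target plasmid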
Rule: recombinant UMI read abundance (log10) of 1 or more gives TRUE; anything lower gives FALSE.

input_sequence	class_label
ACTCCAGCATGGACCGGTTTTCCCGGTAATCCGTATTTGCG (site ACTCCAGCTCG)	FALSE
CACTCTTCATGGACCGGTTTTCCCGGTAATCCGTATTTGCC (site CACTCGTCTGG)	FALSE
ACACTTCCATGGACCGGTTTTCCCGGTAATCCGTATTTGAC (site ACACTTCCTGT)	FALSE
CAACTAACATGGACCGGTTTTCCCGGTAATCCGTATTTGGA (site CCACTAACTTC)	FALSE
CACTTGGCATGGACCGGTTTTCCCGGTAATCCGTATTTGGC (site CACTTGGCTAC)	FALSE
ATGACTACATGGACCGGTTTTCCCGGTAATCCGTATTTGAC (site AGGACTACTGT)	FALSE
TCCCAATCATGGACCGGTTTTCCCGGTAATCCGTATTTGTG (site TCCCAATCTCA)	FALSE
ACGGCATCATGGACCGGTTTTCCCGGTAATCCGTATTTGCA (site ACGGCATCTTG)	TRUE
ATGGGCTCATGGACCGGTTTTCCCGGTAATCCGTATTTGTC (site ATGGGCTCTGA)	TRUE
CAGCTCGCATGGACCGGTTTTCCCGGTAATCCGTATTTGTG (site CAGCTCGCTCA)	FALSE
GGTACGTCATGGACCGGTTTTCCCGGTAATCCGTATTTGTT (site GGTCCGTCTAA)	FALSE
CTACTAACATGGACCGGTTTTCCCGGTAATCCGTATTTGCA (site CTACTAACTTC)	FALSE
AAAGCAGCATGGACCGGTTTTCCCGGTAATCCGTATTTGCT (site TAAGCAGCTAG)	TRUE
AGATAGACATGGACCGGTTTTCCCGGTAATCCGTATTTGCC (site GGATAGACTGG)	TRUE
ATGTTCGCATGGACCGGTTTTCCCGGTAATCCGTATTTGTA (site ATGTTCGCTTA)	TRUE
TAGAATACATGGACCGGTTTTCCCGGTAATCCGTATTTGCT (site TAGAATACTAG)	TRUE
CATAGCCCATGGACCGGTTTTCCCGGTAATCCGTATTTGCC (site CATAGCCCTGG)	FALSE

* * *

# assay_remarks: recombinant UMI read abundance after kanamycin selection (control-corrected) (log10(CPM+1)); higher = more efficient recombination; extreme values may be limits of the assay; sequences stand for … in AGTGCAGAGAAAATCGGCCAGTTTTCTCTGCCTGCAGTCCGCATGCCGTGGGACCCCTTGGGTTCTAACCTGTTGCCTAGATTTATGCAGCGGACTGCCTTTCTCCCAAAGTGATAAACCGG…AGGTTGGTTTCACT; site = the 11-nt donor
Each item that follows carries a reported recombinant UMI read abundance (log10).

input_sequence	recombinant UMI read abundance (log10)
GGGCAGCCATGGACCGGTTTTCCCGGTAATCCGTATTTGGG (site GGGCAGCCTCC)	0.0377
AGCTATTCATGGACCGGTTTTCCCGGTAATCCGTATTTGGC (site AGCTATTCTGC)	0.69
TGCCCGGCATGGACCGGTTTTCCCGGTAATCCGTATTTGGC (site TGTCCGGCTGC)	0
ACGTAGGCATGGACCGGTTTTCCCGGTAATCCGTATTTGGC (site ATGTAGGCTGC)	1.21
TAATGTGCATGGACCGGTTTTCCCGGTAATCCGTATTTGGG (site TAATGTGCTCC)	0.0867
CCCTACACATGGACCGGTTTTCCCGGTAATCCGTATTTGTA (site CCCCACACTTA)	0.00329
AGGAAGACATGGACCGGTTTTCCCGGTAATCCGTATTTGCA (site AGCCAGACTTG)	0.654
GAGAATACATGGACCGGTTTTCCCGGTAATCCGTATTTGCA (site CAGAATACTTG)	0.0136
CTCACTACATGGACCGGTTTTCCCGGTAATCCGTATTTGAG (site CTCGCTACTCT)	0

* * *

Each item that follows carries a reported recombinant UMI read abundance (log10).
# assay_remarks: recombinant UMI read abundance after kanamycin selection (control-corrected) (log10(CPM+1)); higher = more efficient recombination; extreme values may be limits of the assay; sequences stand for … in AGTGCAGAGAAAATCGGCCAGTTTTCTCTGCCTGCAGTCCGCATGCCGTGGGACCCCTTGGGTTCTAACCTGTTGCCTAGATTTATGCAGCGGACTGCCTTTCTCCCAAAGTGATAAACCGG…AGGTTGGTTTCACT; site = the 11-nt donor

input_sequence	recombinant UMI read abundance (log10)
ACTGTATCATGGACCGGTTTTCCCGGTAATCCGTATTTGCC (site ACAGTATCTTG)	0
TGTACACCATGGACCGGTTTTCCCGGTAATCCGTATTTGCC (site TGTACACCTGC)	0
CGGTCTTCATGGACCGGTTTTCCCGGTAATCCGTATTTGCT (site CGGTCTTCTAG)	1.49
CGTTATCCATGGACCGGTTTTCCCGGTAATCCGTATTTGTT (site CGTTATCCTAA)	0.375
TATAAGCCATGGACCGGTTTTCCCGGTAATCCGTATTTGCC (site TATAAGCCTGG)	0
TAATGACCATGGACCGGTTTTCCCGGTAATCCGTATTTGGG (site TAATGATCTCC)	0.00372
GTTAAAACATGGACCGGTTTTCCCGGTAATCCGTATTTGGC (site GTTAAAACTGC)	0
GTTGTCCCATGGACCGGTTTTCCCGGTAATCCGTATTTGGT (site GTTGTCCCTAC)	0.0143
GATTGTACATGGACCGGTTTTCCCGGTAATCCGTATTTGAC (site GATTGCACTGT)	0
CTAGTACCATGGACCGGTTTTCCCGGTAATCCGTATTTGGC (site CTAGTACCTGC)	0
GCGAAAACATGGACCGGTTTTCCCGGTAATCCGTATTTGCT (site GCGAAAGCTAG)	0
CCATCATCATGGACCGGTTTTCCCGGTAATCCGTATTTGTT (site CGATCATCTAG)	0
GTACATTCATGGACCGGTTTTCCCGGTAATCCGTATTTGAT (site GTACATTCTAT)	2.04
TTGGCTGCATGGACCGGTTTTCCCGGTAATCCGTATTTGTG (site TTAGCTGCTCA)	0.0254
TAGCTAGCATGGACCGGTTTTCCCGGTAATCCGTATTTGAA (site TACCTAGCTTT)	0.015
TCTTAACCATGGACCGGTTTTCCCGGTAATCCGTATTTGTG (site TCTTAACCTCA)	0.0128
CGGGAGTCATGGACCGGTTTTCCCGGTAATCCGTATTTGCT (site CGGGAGTCTCG)	2.06
CGCGGTCCATGGACCGGTTTTCCCGGTAATCCGTATTTGCA (site CACGGTCCTTG)	0
CAAAGGGCATGGACCGGTTTTCCCGGTAATCCGTATTTGAC (site CAAAGGGCTGT)	2.62
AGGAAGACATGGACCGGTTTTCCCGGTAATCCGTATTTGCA (site AGAAAGACTCG)	0.0197
TACTGCACATGGACCGGTTTTCCCGGTAATCCGTATTTGGG (site TACTGCACTCC)	0.0129
GGGATAACATGGACCGGTTTTCCCGGTAATCCGTATTTGCC (site GGGATAACTGG)	0
ATTCAGACATGGACCGGTTTTCCCGGTAATCCGTATTTGGT (site ATTTAGACTAC)	0.0116
GGAGTGGCATGGACCGGTTTTCCCGGTAATCCGTATTTGGG (site GGAGTGGCTGC)	0
GTCGTTCCATGGACCGGTTTTCCCGGTAATCCGTATTTGGT (site GTAGTTCCTAC)	0
GATAATCCATGGACCGGTTTTCCCGGTAATCCGTATTTGCT (site GATTATCCTAG)	0
CCGTCAGCATGGACCGGTTTTCCCGGTAATCCGTATTTGTG (site CCGTCAGCTCA)	0.00531
CACTTAGCATGGACCGGTTTTCCCGGTAATCCGTATTTGGA (site CACTTGGCTTC)	0.0129
GCTTAAGCATGGACCGGTTTTCCCGGTAATCCGTATTTGCC (site GCTTAAGCTGG)	0.666
GCTGCGCCATGGACCGGTTTTCCCGGTAATCCGTATTTGGA (site GCTGCGCCTTC)	0.0238
CGATCTTCATGGACCGGTTTTCCCGGTAATCCGTATTTGCA (site CGATCTTCTTG)	0.912
AGTGTCACATGGACCGGTTTTCCCGGTAATCCGTATTTGGC (site AGTGTCACTGC)	2.62
CTGCTCCCATGGACCGGTTTTCCCGGTAATCCGTATTTGCT (site CTGCTTCCTAG)	0
GGATAGTCATGGACCGGTTTTCCCGGTAATCCGTATTTGCC (site GGATAGACTGG)	2.31
GCATCTACATGGACCGGTTTTCCCGGTAATCCGTATTTGTG (site TCATCTACTCA)	1.87
CGTGAAACATGGACCGGTTTTCCCGGTAATCCGTATTTGTT (site CGTGAAACTAA)	1.61
